test system: SF-539; assay: NCI tumour cell line growth inhibition, 48 h
Calls of active or inactive are those of the source. Rule as the data show it: active = GI50 up to about 1.1 µM and inactive = higher.
Assignment: determine reported GI50 for the given compounds.

Value lookup for GI50; key = Cc1ccc(C(=O)Nc2ccc(CP(=O)(O)O)cc2)cc1NC(=O)Nc1cc(C(=O)Nc2ccc(CP(=O)(O)O)cc2)ccc1C
> 100 µM (inactive)

Value lookup for GI50; key = O=c1[nH]n(CCc2ccccc2CCl)c2ccc([N+](=O)[O-])cc12
> 100 µM (inactive)

Value lookup for GI50; key = O=c1[nH]nc2c3n[nH]c(=O)n3c3ccccc3n12
69.8 µM (inactive)

Value lookup for GI50; key = O=c1[nH]c(Nc2nc3ccccc3[nH]2)nc(O)c1Cc1ccccc1
> 100 µM (inactive)

Value lookup for GI50; key = NC(=O)COc1ccccc1
> 100 µM (inactive)

Value lookup for GI50; key = C[C@@H](C1CC[C@H]2[C@@H]3[C@@H]4O[C@@H]4[C@@]4(O)CC=CC(=O)[C@]4(C)[C@H]3C[C@H](O)[C@]12C)[C@H]1C[C@]2(C)O[C@]2(C)C(=O)O1 (some centres undefined)
> 100 µM (inactive)

Value lookup for GI50; key = COc1cc2c(cc1OCCCCCCCCCCN1C(=O)c3cccc4cccc(c34)C1=O)N=C[C@@H]1CCCN1C2=O
1.55 µM (inactive)

Value lookup for GI50; key = CC1=C(C)C(=O)C(C2=CC(=O)c3ccccc3C2=O)=C(C2=CC(=O)c3ccccc3C2=O)C1=O
6.35 µM (inactive)

Value lookup for GI50; key = Cc1ccc(SCC(CSCCO)OCn2cnc3c2N=C(N)NC32OCCO2)cc1 (centres undefined)
> 100 µM (inactive)

* * *

tested on: RXF 631; test: NCI tumour cell line growth inhibition, 48 h
Calls of active or inactive are those of the source. Rule as the data show it: active = GI50 up to about 1.1 µM and inactive = higher.
Assignment: determine reported GI50 for the given compounds.

Value lookup for GI50; key = O=C1NCCS(=O)(=O)N[C@@H](CC2=CC=CCC2)C(=O)N2CCCC12 (stereo partly drawn)
> 100 µM (inactive)

Value lookup for GI50; key = N#CCC(=O)N/N=C(\CCN1CCCC1)CC(c1ccccc1)c1c(O)c2ccccc2oc1=O (stereo not drawn)
> 100 µM (inactive)

Value lookup for GI50; key = COc1ccc(/C(=N/NC(N)=O)C(c2ccc(OC)cc2)C2C(=O)Oc3ccccc32)cc1 (stereo not drawn)
> 100 µM (inactive)

Value lookup for GI50; key = N#CC1=C(c2ccccc2)NN(Cc2ccccc2)C(c2ccc(Cl)cc2)CC1=O (stereo not drawn)
28.1 µM (inactive)

Value lookup for GI50; key = COc1cccc(OC)c1/C=N\N1C(=O)c2ccccc2C1=O
29.4 µM (inactive)

Value lookup for GI50; key = CC1CC2OC(=O)CC2C[C@@H]1O[Si](C)(C)C(C)(C)C (stereo partly drawn)
44.5 µM (inactive)

Value lookup for GI50; key = O=[N+]([O-])C1(CO)COC2(OC1)c1ccccc1-c1ccccc12
> 100 µM (inactive)

Value lookup for GI50; key = Cc1cc2c(=O)c3ccccc3[nH]c2c(C(N)=O)c1C
> 100 µM (inactive)

Value lookup for GI50; key = Cn1nc2ccccc2cc1=O
> 100 µM (inactive)

Value lookup for GI50; key = COC(=O)c1sc(C(=O)OC)c2c1CSC2
> 100 µM (inactive)

Value lookup for GI50; key = COc1cc(/C=C/c2ccc(OC(C)=O)cc2)cc(OC)c1OC
11.6 µM (inactive)

Value lookup for GI50; key = N#CC1(Cc2ccccc2)CCCCN1C(=O)c1ccccc1 (stereo not drawn)
> 100 µM (inactive)

Value lookup for GI50; key = COc1ccc(/C=C/C(=O)c2sc(Nc3ccc([N+](=O)[O-])cc3)nc2C)cc1
34.2 µM (inactive)

* * *

system: NCI-H460; assay: NCI tumour cell line growth inhibition, 48 h
Active and inactive are the calls of the source. Cut-off read from the data, not from the text of the source: active = GI50 up to about 1.1 µM and inactive = higher.
Assignment: determine reported GI50 for the given compounds.

Value lookup for GI50; key = CCOC(=O)[C@H](Cc1ccccc1)NC(=O)c1nc[nH]c1[N+](=O)[O-]
> 100 µM (inactive)

Value lookup for GI50; key = COc1ccc(/C=C/C(=O)/C=C/c2ccc(OC)cc2OC)c(OC)c1
5.08 µM (inactive)

Value lookup for GI50; key = CSc1nc(NC2OCC(OC(C)=O)C(OC(C)=O)C2OC(C)=O)c(/N=C\C=N\c2c(NC3OCC(OC(C)=O)C(OC(C)=O)C3OC(C)=O)nc(SC)n(C)c2=O)c(=O)n1C (centres undefined)
> 100 µM (inactive)

Value lookup for GI50; key = O=S(=O)(O)c1ccc(/N=N/c2nc(C(F)(F)F)c(C(F)(F)F)[nH]2)cc1
82 µM (inactive)

* * *

tested on: EKVX; assay: NCI tumour cell line growth inhibition, 48 h
Active and inactive are the calls of the source. No stated cut-off is given here; in the data, active = GI50 up to about 1.1 µM and inactive = higher.
Assignment: determine reported GI50 for the given molecules.

Value lookup for GI50; key = COc1ccc(/C(=N/NC(=O)NN)C(c2ccc(OC)cc2)C2(O)CNc3c(Cl)cc(Cl)cc32)cc1 (stereo unspecified)
> 100 µM (inactive)

Value lookup for GI50; key = Clc1ccc(OCc2nnc(COc3ccc(OCc4nnc(COc5ccc(Cl)cc5Cl)o4)c(Cl)c3)o2)c(Cl)c1
13.6 µM (inactive)

Value lookup for GI50; key = O=C1NCCS(=O)(=O)N[C@@H](CC2=CC=CCC2)C(=O)N2CCCC12 (stereo partly specified)
> 100 µM (inactive)

Value lookup for GI50; key = Cc1cn(C2CC(N=[N+]=[N-])C(CO)O2)c(=O)n(CCCCO)c1=O (stereo unspecified)
> 100 µM (inactive)

Value lookup for GI50; key = Cn1c(=O)c(C(=O)Nc2nc(C34CC5CC(CC(C5)C3)C4)cs2)c(O)c2ccccc21
> 100 µM (inactive)

Value lookup for GI50; key = Cc1cc(S(=O)(=O)Nc2nc3ccccc3n2-c2ccccc2)c(S)cc1Cl
> 100 µM (inactive)

Value lookup for GI50; key = CC(=O)OCC12CCC3C4(C)CCCC(C)(C)C4CCC3(C)C1CC(C1=CC(=O)OC1O)O2 (stereo unspecified)
2.43 µM (inactive)

Value lookup for GI50; key = COc1cc2c(cc1C1=NC(C)(C)CO1)OCO2
> 100 µM (inactive)

Value lookup for GI50; key = COc1cc2c(cc1OCCCCCCCCCCN1C(=O)c3cccc4cccc(c34)C1=O)N=C[C@@H]1CCCN1C2=O
2.11 µM (inactive)

Value lookup for GI50; key = COc1cc2c(cc1OC)C1c3ccccc3CCCN1CC2 (stereo unspecified)
> 100 µM (inactive)

Value lookup for GI50; key = CC(=O)Oc1ccc(CO)cc1OC(C)=O
32.2 µM (inactive)

Value lookup for GI50; key = CCOc1ccc(N/C(=C(/C(Cl)=C(/Cl)NCCN)[N+](=O)[O-])n2nnc3ccccc32)cc1
50.2 µM (inactive)

Value lookup for GI50; key = CCOC(=O)c1sc2nc(SC)nc3c2c1N=CN3c1ccc(Br)cc1
> 100 µM (inactive)

Value lookup for GI50; key = CCCCOP1(=O)C=C(C)C(=C(Cl)Cl)C(C)=C1 (stereo unspecified)
47.4 µM (inactive)

Value lookup for GI50; key = CCCCc1ccc(Nc2nc(Cl)c3ncn(COCCOC(C)=O)c3n2)cc1
6.19 µM (inactive)

Value lookup for GI50; key = O=c1ccn(-c2ccccn2)c(=O)n1-c1ccccn1
> 100 µM (inactive)

Value lookup for GI50; key = CC(C)(C)OP(=O)(OC(C)(C)C)C(O)c1ccc(/C=C(\C#N)C(N)=O)cc1 (stereo unspecified)
> 100 µM (inactive)

Value lookup for GI50; key = COc1cc2c3c4c1OCc1c5c(cc(c1-4)CC3[N+](C)(C)CC2)OCO5 (stereo unspecified)
> 100 µM (inactive)

Value lookup for GI50; key = NC1=NC(c2ccccc2)CC(c2cc(Cl)ccc2O)=N1 (stereo unspecified)
15.3 µM (inactive)

Value lookup for GI50; key = c1coc(CNc2[nH]cnc3nncc2-3)c1
> 100 µM (inactive)

Value lookup for GI50; key = Cc1[nH]c(=O)nc(NCCNCCO)c1C(=O)Nc1c2ccccc2nc2ccccc12
> 100 µM (inactive)

* * *

tested on: SNB-19; experiment: NCI tumour cell line growth inhibition, 48 h
Activity calls are given as the source filed them. No stated cut-off is given here; in the data, active = GI50 up to about 1.1 µM and inactive = higher.
Select the matching outcome among yes (1) for active, no (0) for inactive

Please share the test call associated with NC1=NC(c2ccccc2)CC(c2cc(Cl)ccc2O)=N1 (configuration not stated) .
no (0)

Please share the test call associated with CC(C)N1C=[N+](C(C)C)CC1 .
no (0)

Please share the test call associated with NC(=O)C(=CNC(=S)Nc1ccccc1)C(N)=O .
no (0)

Please share the test call associated with CCCCC(Sc1cc(Cl)c(C)cc1S(=O)(=O)Nc1nc(N)n[nH]1)C(=O)OC (configuration not stated) .
no (0)

Please share the test call associated with COc1cc(/C=C/c2ccc(OC(C)=O)cc2)cc(OC)c1OC .
no (0)

Please share the test call associated with O=C(Cn1cc(-c2ccccc2)nn1)NC1CCCCC1 .
no (0)

Please share the test call associated with COc1ccc(-n2c(C)nc3ccc(/N=C/c4ccccc4)cc3c2=O)cc1 .
no (0)

Please share the test call associated with C=CCN1C(=O)N/C(=C\c2ccc(Cl)cc2)C1=O .
no (0)

Please share the test call associated with O=C(NCc1ccccc1)c1c(O)nc2ccccc2c1O .
no (0)

Please share the test call associated with CCOC(=O)CP(=S)(S)c1ccccc1 (configuration not stated) .
no (0)

Please share the test call associated with O=[N+]([O-])c1cccc2nc3ccccc3c(NCCN(CCO)CCO)c12 .
yes (1)

Please share the test call associated with C/C(=N\O)c1ccc(Nc2c3ccccc3nc3occc23)cc1 .
yes (1)
